experiment: Resazurin reduction viability assay in the neuronal differentiation assay; type: cell-based, human; conditions: human, 15.6 µM fipronil; read-out: General viability (% of control)
readout: viability

Which viability value belongs to N#Cc1nn(-c2c(Cl)cc(C(F)(F)F)cc2Cl)c(N)c1[S+]([O-])C(F)(F)F (stereo not shown) ?
> 90%

###

test: Resazurin reduction viability assay in the neuronal differentiation assay; format: cell-based, human; conditions: human, 7.81 µM fipronil sulfone; read-out: General viability (% of control)
readout: viability

Consider the molecule shown here: N#Cc1nn(-c2c(Cl)cc(C(F)(F)F)cc2Cl)c(N)c1S(=O)(=O)C(F)(F)F What is its recorded viability?
~100%

###

tested on: differentiating NT2 cells; experiment: Resazurin reduction viability assay in the neuronal differentiation assay; assay type: cell-based, human; settings: differentiation assay, 5 days exposure; read-out: IC50 general cytotoxicity (resazurin), unspec. EP
readout: IC50
The number alone won't do; follow it with the unit.

Tell me reported IC50 for N#Cc1nn(-c2c(Cl)cc(C(F)(F)F)cc2Cl)c(N)c1[S+]([O-])C(F)(F)F (stereo not shown) , tested with differentiating NT2 cells.
23.4 µM

###

conditions: human, General cell viability (% of control), highest tested concentration, 10 µM rotenone
readout: viability at 24 h, 10 µM

So what does the record say about viability at 24 h, 10 µM for C=C(C)[C@H]1Cc2c(ccc3c2O[C@@H]2COc4cc(OC)c(OC)cc4[C@@H]2C3=O)O1 ?
~80%

###

test: Resazurin reduction viability assay in the neuronal differentiation assay; type: cell-based, human; conditions: human, differentiation assay, 5 days exposure; read-out: IC50 general cytotoxicity (resazurin), unspec. EP
readout: pIC50
Units for pIC50: none; it is -log10 of a concentration expressed in mol/L.

compound	pIC50
N#Cc1nn(-c2c(Cl)cc(C(F)(F)F)cc2Cl)c(N)c1[S+]([O-])C(F)(F)F (centres unmarked)	4.63

From here, focus on the item given below.
Requested field: pIC50. Item: N#Cc1nn(-c2c(Cl)cc(C(F)(F)F)cc2Cl)c(N)c1S(=O)(=O)C(F)(F)F
4.81

###

tested on: NT2 precursor cells; experiment: cells; format: cell-based, human; conditions: Homo sapiens, 44 h, read-out: IC50 migration (spec. EP)
readout: IC50 (nM)
Just the number in nM, nothing appended.

# get_value(readout='IC50', item= C=C(C)[C@H]1Cc2c(ccc3c2O[C@@H]2COc4cc(OC)c(OC)cc4[C@@H]2C3=O)O1 [Rotenone] )
51

###

IC50 by entry:
assay: Resazurin reduction viability assay in the cell migration assay; assay type: cell-based; settings: human; migration assay, 44 h exposure; > = highest tested concentration; read-out: IC50 general cytotoxicity (resazurin), unspec. EP

Fill in the blank: the reported IC50 of N#Cc1nn(-c2c(Cl)cc(C(F)(F)F)cc2Cl)c(N)c1[S+]([O-])C(F)(F)F (centres unmarked) [Fipronil] is ____.
> 62.5 µM

// query IC50 value for entry N#Cc1nn(-c2c(Cl)cc(C(F)(F)F)cc2Cl)c(N)c1S(=O)(=O)C(F)(F)F [Fipronil sulfone]
> 62.5 µM

###

experiment: Resazurin reduction viability assay in the cell migration assay; assay type: cell-based; settings: human; migration assay, 44 h exposure; > = highest tested concentration; read-out: IC50 general cytotoxicity (resazurin), unspec. EP
readout: IC50 at 44 h

Entry under review: C=C(C)[C@H]1Cc2c(ccc3c2O[C@@H]2COc4cc(OC)c(OC)cc4[C@@H]2C3=O)O1 . Reported IC50 at 44 h?
> 0.333 µM
